tested on: Staphylococcus aureus, MRSA (ATCC 33591); assay: Antibacterial MIC assay (microbroth dilution, CLSI); format: cell-based; conditions: microbroth dilution, cation-adjusted Mueller-Hinton broth, 35° C. for 16-20 hours, read-out: MIC Staphylococcus aureus, MRSA (ATCC 33591)
RECORDED_ENDPOINT: MIC

Some solved entries appear below for comparison.
C=C[C@]1(C)C[C@@H](OC(=O)COc2ccc3c(c2)B(O)NN=C3)[C@]2(C)[C@H](C)CC[C@]3(C[C@H](O)C(=O)[C@H]32)[C@@H](C)[C@@H]1O [Compound 70] : 0.5 to 2 µg/mL
C=C[C@]1(C)C[C@@H](OC(=O)COc2ccc3c(c2F)B(O)N(S(C)(=O)=O)N=C3)[C@]2(C)[C@H](C)CC[C@]3(C[C@H](F)C(=O)[C@H]32)[C@@H](C)[C@@H]1O [Compound 76] : 0.5 to 2 µg/mL

Q: May I ask what MIC has been recorded for C=C[C@]1(C)C[C@@H](OC(=O)COc2ccc3c(c2)B(O)N(C(C)=O)N=C3)[C@]2(C)[C@H](C)CC[C@]3(C[C@H](O)C(=O)[C@H]32)[C@@H](C)[C@@H]1O [Compound 86] ?
Result: < 0.25 µg/mL

Q: Further, for C=C[C@]1(C)C[C@@H](OC(=O)COc2cc3c(cc2F)COB3O)[C@]2(C)[C@H](C)CC[C@]3(C[C@H](O)C(=O)[C@H]32)[C@@H](C)[C@@H]1O [Compound 37] ?
Result: < 0.25 µg/mL

Q: Further, for C=C[C@]1(C)C[C@@H](OC(=O)COc2ccc3c(c2)B(O)ON=C3)[C@]2(C)[C@H](C)CC[C@]3(C[C@H](O)C(=O)[C@H]32)[C@@H](C)[C@@H]1O [Compound 98] ?
Result: 0.5 to 2 µg/mL

====

test system: Staphylococcus aureus, MRSA (ATCC 33591); assay: Antibacterial MIC assay (microbroth dilution, CLSI); assay type: cell-based; details: microbroth dilution, cation-adjusted Mueller-Hinton broth, 35° C. for 16-20 hours, read-out: MIC Staphylococcus aureus, MRSA (ATCC 33591)
Let's look at some compounds and their measured MIC.

Some solved entries appear below for comparison.
C=C[C@]1(C)C[C@@H](OC(=O)COc2ccc3c(c2F)B(O)OCC3)[C@]2(C)[C@H](C)CC[C@]3(CCC(=O)[C@H]32)[C@@H](C)[C@@H]1O [Compound 68] : < 0.25 µg/mL
C=C[C@]1(C)C[C@@H](OC(=O)COc2ccc3c(c2C)B(O)N(C(=O)OC)N=C3)[C@]2(C)[C@H](C)CC[C@]3(C[C@H](F)C(=O)[C@H]32)[C@@H](C)[C@@H]1O [Compound 95] : < 0.25 µg/mL

Would you kindly look at the next entry?
Q: May I ask what MIC has been recorded for C=C[C@]1(C)C[C@@H](OC(=O)COc2ccc3c(c2)B(O)OC3CN)[C@]2(C)[C@H](C)CC[C@]3(CCC(=O)[C@H]32)[C@@H](C)[C@@H]1O.Cl (stereo partly drawn) [Compound 21] ?
Result: 0.5 to 2 µg/mL

====

tested on: Staphylococcus aureus, MRSA (ATCC 33591); assay: Antibacterial MIC assay (microbroth dilution, CLSI); assay type: cell-based; conditions: microbroth dilution, cation-adjusted Mueller-Hinton broth, 35° C. for 16-20 hours, read-out: MIC Staphylococcus aureus, MRSA (ATCC 33591)
Let's look at some compounds and their measured MIC.

C=C[C@]1(C)C[C@@H](OC(=O)COc2ccc3c(c2F)B(O)N(S(C)(=O)=O)N=C3)[C@]2(C)[C@H](C)CC[C@]3(C[C@H](O)C(=O)[C@H]32)[C@@H](C)[C@@H]1O : 4 to 32 µg/mL
C=C[C@]1(C)C[C@@H](OC(=O)COc2ccc3c(c2F)B(O)OC3CNC(=O)OC(C)(C)C)[C@]2(C)[C@H](C)CC[C@]3(CCC(=O)[C@H]32)[C@@H](C)[C@@H]1O (some centres unmarked) : 0.5 to 2 µg/mL
C=C[C@]1(C)C[C@@H](OC(=O)COc2ccc3c(c2C#N)B(O)OC3)[C@]2(C)[C@H](C)CC[C@]3(CCC(=O)[C@H]32)[C@@H](C)[C@@H]1O : < 0.25 µg/mL
C=C[C@]1(C)C[C@@H](OC(=O)COc2cc3c(c(C4CCN(C(=O)OC(C)(C)C)CC4)c2)COB3O)[C@]2(C)[C@H](C)CC[C@]3(CCC(=O)[C@H]32)[C@@H](C)[C@@H]1O : 0.5 to 2 µg/mL
C=C[C@]1(C)C[C@@H](OC(=O)COc2cnc3c(c2)B(O)OC3)[C@]2(C)[C@H](C)CC[C@]3(CCC(=O)[C@H]32)[C@@H](C)[C@@H]1O : 0.5 to 2 µg/mL
C=C[C@]1(C)C[C@@H](OC(=O)COc2ccc3c(c2)B(O)N(C)N=C3)[C@]2(C)[C@H](C)CC[C@]3(C[C@H](O)C(=O)[C@H]32)[C@@H](C)[C@@H]1O : 0.5 to 2 µg/mL
C=C[C@]1(C)C[C@@H](OC(=O)NC(=O)c2ccc3c(c2)B(O)OC3)[C@]2(C)[C@H](C)CC[C@]3(CCC(=O)[C@H]32)[C@@H](C)[C@@H]1O : < 0.25 µg/mL
C=C[C@]1(C)C[C@@H](OC(=O)COc2ccc3c(c2)NB(C)C=C3)[C@]2(C)[C@H](C)CC[C@]3(CCC(=O)[C@H]32)[C@@H](C)[C@@H]1O : < 0.25 µg/mL
C=C[C@]1(C)C[C@@H](OC(=O)COc2ccc3c(c2)B(O)N(S(C)(=O)=O)N=C3)[C@]2(C)[C@H](C)CC[C@]3(C[C@H](O)C(=O)[C@H]32)[C@@H](C)[C@@H]1O : 0.5 to 2 µg/mL
C=C[C@]1(C)C[C@@H](OC(=O)CNc2cnc3c(c2)B(O)OC3)[C@]2(C)[C@H](C)CC[C@]3(CCC(=O)[C@H]32)[C@@H](C)[C@@H]1O : > 64 µg/mL

Q: Kindly state the measured MIC obtained for C=C[C@]1(C)C[C@@H](OC(=O)COc2ccc3c(c2)B(O)N(C)N=C3)[C@]2(C)[C@H](C)CC[C@]3(CCC(=O)[C@H]32)C[C@@H]1O with Staphylococcus aureus, MRSA (ATCC 33591).
Result: < 0.25 µg/mL

Q: Further, for C=C[C@]1(C)C[C@@H](OC(=O)COc2ccc3c(c2)B(O)OC3CC(=O)OC(C)(C)C)[C@]2(C)[C@H](C)CC[C@]3(CCC(=O)[C@H]32)[C@@H](C)[C@@H]1O (some centres unmarked) ?
Result: < 0.25 µg/mL

Q: Further, for C=C[C@]1(C)C[C@@H](OC(=O)COc2cc(CN)c3c(c2)B(O)OC3)[C@]2(C)[C@H](C)CC[C@]3(C[C@H](O)C(=O)[C@H]32)[C@@H](C)[C@@H]1O ?
Result: 4 to 32 µg/mL

Q: Further, for C=C[C@]1(C)C[C@@H](OC(=O)COc2ccc3c(c2F)B(O)OC3)[C@]2(C)[C@H](C)CC[C@]3(C[C@H](O)C(=O)[C@H]32)[C@@H](C)[C@@H]1O ?
Result: < 0.25 µg/mL

Q: Further, for C=C[C@]1(C)C[C@@H](OC(=O)COc2ccc3c(c2)B(O)N(C)N=C3)[C@]2(C)[C@H](C)CC[C@]3(C[C@H](F)C(=O)[C@H]32)[C@@H](C)[C@@H]1O ?
Result: 0.5 to 2 µg/mL
